Target: Human immunodeficiency virus type 1 reverse transcriptase (Human immunodeficiency virus 1, UniProt Q72547, K103N)
Test: Inhibition of HIV1 RT K103N mutant mediated DNA-dependent DNA polymerization using RNA PPT primed substrate by scintillation proximity assay
pIC50: −log10 of the molar value.
quantity name: pIC50

pIC50 reading for "CCc1cc(NCc2nc3c(Cl)ccc(Cl)c3o2)c(O)nc1C" : < 5.30

* * *

Target: Human immunodeficiency virus type 1 reverse transcriptase (Human immunodeficiency virus 1, UniProt Q72547, Y181C)
Assay: Inhibition of HIV1 RT Y181C mutant mediated DNA-dependent DNA polymerization using DNA PPT primed substrate by scintillation proximity assay
pIC50: −log10 of the molar value.
quantity name: pIC50

pIC50 reading for "CCc1cc(NCc2nc3c(Cl)ccc(Cl)c3o2)c(O)nc1C" : < 5.30

* * *

Molecular target: Human immunodeficiency virus type 1 reverse transcriptase (Human immunodeficiency virus 1, UniProt Q72547, K103N)
Experiment: Inhibition of HIV1 RT K103N mutant mediated DNA-dependent DNA polymerization using DNA PPT primed substrate by scintillation proximity assay
quantity name: IC50

IC50 reading for CCc1cc(NCc2nc3c(Cl)ccc(Cl)c3o2)c(O)nc1C [L-697661] : > 5 µM

* * *

Experiment: Inhibition of HIV1 RT D443N mutant mediated DNA-dependent DNA polymerization using chimeric substrate with RNA PPT primer extended at 3' end with upto 3 deoxyribonucleotides
Design: species or system Human immunodeficiency virus 1
quantity name: pIC50
By convention, pIC50 is the negative base-10 log of a molar concentration.

pIC50 reading for CCc1cc(NCc2nc3c(Cl)ccc(Cl)c3o2)c(O)nc1C [L-697661] : 6.62

* * *

Target: Human immunodeficiency virus type 1 reverse transcriptase (Human immunodeficiency virus 1, UniProt Q72547, K103N)
Experiment: Inhibition of HIV1 RT K103N mutant mediated DNA-dependent DNA polymerization using RNA/DNAM duplex primed substrate by scintillation proximity assay
pIC50: −log10 of the molar value.
quantity name: pIC50

pIC50 reading for CCc1cc(NCc2nc3c(Cl)ccc(Cl)c3o2)c(O)nc1C [L-697661] : < 5.30

* * *

Molecular target: Human immunodeficiency virus type 1 reverse transcriptase (Human immunodeficiency virus 1, UniProt Q72547)
Assay: Inhibition of HIV1 RT mediated DNA-dependent DNA polymerization using chimeric substrate with RNA PPT primer extended at 3' end with upto 9 deoxyribonucleotides
quantity name: pIC50
By convention, pIC50 is the negative base-10 log of a molar concentration.

pIC50 reading for "CCc1cc(NCc2nc3c(Cl)ccc(Cl)c3o2)c(O)nc1C" : 6.49

* * *

Biological target: Human immunodeficiency virus type 1 reverse transcriptase (Human immunodeficiency virus 1, UniProt Q72547, Y181C)
Assay: Inhibition of HIV1 RT Y181C mutant mediated DNA-dependent DNA polymerization using RNA PPT primed substrate by scintillation proximity assay
quantity name: IC50

IC50 reading for CCc1cc(NCc2nc3c(Cl)ccc(Cl)c3o2)c(O)nc1C [L-697661] : > 5 µM

* * *

Biological target: UniProtKB Q72547
Assay: Inhibition of HIV1 RT mediated DNA-dependent DNA polymerization using chimeric substrate with RNA PPT primer
quantity name: pIC50
By convention, pIC50 is the negative base-10 log of a molar concentration.

pIC50 reading for "CCc1cc(NCc2nc3c(Cl)ccc(Cl)c3o2)c(O)nc1C" : 6.55
